Listed below: melting point values for each entry.

>  <molecule>
CC(Oc1cccc2c1C(=O)N(C1CCC(=O)NC1=O)C2=O)c1ccc2ccccc2c1 (stereo not shown) [Example 23]

>  <melting point>
174 to 176 °C

$$$$
>  <molecule>
O=C1CCC(N2C(=O)c3cccc(OCc4ccc5c(c4)OCO5)c3C2=O)C(=O)N1 (stereo not shown) [Example 13]

>  <melting point>
229 to 231 °C

$$$$
>  <molecule>
O=C1CCC(N2C(=O)c3cccc(OCc4sc5ccccc5c4Cl)c3C2=O)C(=O)N1 (stereo not shown) [Example 20]

>  <melting point>
240 to 242 °C

$$$$
>  <molecule>
O=C1CCC(N2C(=O)c3cccc(OCc4ccc(Cl)s4)c3C2=O)C(=O)N1 (stereo not shown) [Example 22]

>  <melting point>
217 to 219 °C

$$$$

Each recorded value in this set is attributed to patent US10385037B2.
